Every entry's value here was drawn from the RNAGym collection of RNA variant scans (doi:10.7554/elife.90254).

B1: LINE1-full (parent)
chain: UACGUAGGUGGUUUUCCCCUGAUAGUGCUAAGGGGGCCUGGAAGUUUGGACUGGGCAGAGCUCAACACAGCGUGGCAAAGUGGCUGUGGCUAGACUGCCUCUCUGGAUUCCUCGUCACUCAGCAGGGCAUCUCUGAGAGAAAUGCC

- Variants of: B1
- test.description: self-cleavage, relative activity (ratio to wild type); higher = more cleavage; in vitro, sequencing; the parent is a self-cleaving ribozyme
Each entry below carries its recorded self-cleavage.

Record request: self-cleavage value, item A92G C103U 0.03

Record request: self-cleavage value, item U47C G97A 0.59
